The following binders are listed with their measured MFI pH 6.0 values.
target_system: T1, human CD3 on CD3+ Jurkat cells (human, UniProt P07766 23-207)
T1 construct: whole, on cells; Native CD3 complex on cells; the other CD3 chains are not specified for this assay; also called Human CD3+ Jurkat
T1 sequence (P07766 23-207): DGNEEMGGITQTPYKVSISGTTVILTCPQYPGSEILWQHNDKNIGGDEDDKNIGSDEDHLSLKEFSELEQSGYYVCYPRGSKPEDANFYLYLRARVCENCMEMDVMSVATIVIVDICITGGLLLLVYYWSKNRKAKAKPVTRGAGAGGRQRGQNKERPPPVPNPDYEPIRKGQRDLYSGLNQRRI
measurement_protocol: flow cytometry, 100 nM IgG on CD3+ Jurkat cells, pH 6.0
observable: MFI pH 6.0 (MFI)

{"columns": ["binder", "observed_measurement"],
 "data": [
  ["SAD10320_P01_E01 (ADI-48645) (antibody, V domains shown, IgG; also called Ab49) VH: QVQLVQSGAEVKKPGASVKVSCKASGFNIKDYYMHWVRQAPGQRLEWMGWIDLENANTIYDAKFQGRVTITRDTSASTAYMELSSLRSEDTAVYYCARDAYGHVFYDVWGQGTLVTVSS VL: DIVMTQSPDSLAVSLGERATINCKSSQSLLNARTGKNYLAWYQQKPGQPPKLLIYWASTRESGVPDRFSGSGSGTDFTLTISSLQAEDVAVYYCKQSYKHRTFGGGTKVEIK", 450],
  ["SAD10318_P04_C10 (ADI-48612) (antibody, V domains shown, IgG; also called Ab210) VH: QVQLVQSGAEVKKPGASVKVSCKASGFNIKDYYMHWVRQAPGQRLEWMGWIDLENANTIYDAKFQGRVTITRDTSASTAYMELSSLRSEDTAVYYCARDAYGRYHHDVWGQGTLVTVSS VL: DIVMTQSPDSLAVSLGERATINCKSSQSLLNARTGHNHLAWYQQKPGQPPKLLIYWASTRESGVPDRFSGSGSGTDFTLTISSLQAEDVAVYYCHQSYHRRTFGGGTKVEIK", 42],
  ["SAD10318_P01_B01 (ADI-48574) (antibody, V domains shown, IgG; also called Ab2) VH: QVQLVQSGAEVKKPGASVKVSCKASGFNIKDYYMHWVRQAPGQRLEWMGWIDLENANTIYDAKFQGRVTITRDTSASTAYMELSSLRSEDTAVYYCARDAYGRYHYDHWGQGTLVTVSS VL: DIVMTQSPDSLAVSLGERATINCKSSQSLLNAHTGHNYLAWYQQKPGQPPKLLIYWASTRESGVPDRFSGSGSGTDFTLTISSLQAEDVAVYYCKQSYSRRTFGGGTKVEIK", 3550]
]}

// provenance: patent US20220380463A1
